Measured Max Inhibition (%), listed per entry for reference.
# TARGET UNDER TEST: T1, human CCR8 (human, UniProt P51685 1-355)
# T1 construct: whole, on cells; also called hCCR8
# T1 sequence (P51685 whole entry): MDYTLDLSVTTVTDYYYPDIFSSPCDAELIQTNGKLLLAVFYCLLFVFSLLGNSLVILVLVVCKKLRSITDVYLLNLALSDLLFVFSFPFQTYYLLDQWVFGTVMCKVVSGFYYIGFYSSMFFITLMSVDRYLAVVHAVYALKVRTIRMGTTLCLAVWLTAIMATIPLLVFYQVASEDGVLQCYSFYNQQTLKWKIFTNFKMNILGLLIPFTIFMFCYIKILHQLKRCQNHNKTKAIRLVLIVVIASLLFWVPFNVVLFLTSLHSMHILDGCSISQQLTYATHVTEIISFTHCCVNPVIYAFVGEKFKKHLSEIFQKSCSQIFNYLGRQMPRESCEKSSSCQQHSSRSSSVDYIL
# PROTOCOL TEXT: FACS, competition with AF647-human CCL1 on HEK293-human CCR8 cells
API: value field is a number in %; no unit string.

- BINDER: "153D4G2 (antibody, V domains shown, purified murine hybridoma antibody) VH: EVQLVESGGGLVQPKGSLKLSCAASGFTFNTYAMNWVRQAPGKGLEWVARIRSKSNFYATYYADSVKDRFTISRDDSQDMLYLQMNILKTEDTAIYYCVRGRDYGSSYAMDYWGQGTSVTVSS VL: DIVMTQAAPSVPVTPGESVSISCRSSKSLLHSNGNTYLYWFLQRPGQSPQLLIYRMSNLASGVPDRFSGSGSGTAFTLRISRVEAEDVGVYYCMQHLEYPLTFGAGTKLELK"
  Max Inhibition (%): 96.2
- BINDER: "273H2G6 (antibody, V domains shown, purified murine hybridoma antibody) VH: DVQLQESGPGLVKPSQSLSLTCSVTGYSITSGYYWNWIRQFPGNKLEWMGYISYDGSNNYNPSLKNRISITRDISKNQFFLKLNSVTTEDTATYYCARQVGLRRGAMDYWGQGTSVTVSS VL: DIQMTQSSSYLSVSLGGRVTITCKASDHINNWLAWYQQKPGNAPRLLISGSTSLKAGVASRFSGSGSGKDYTLSITSLQTEDVATYYCQQYWSIPYTFGGGTKLEIK"
  Max Inhibition (%): 85.8

Let us move to another entry and its Max Inhibition (%).
Query block: For the binder shown here, 348E2D11 (antibody, V domains shown, purified murine hybridoma antibody) VH: QVQLVETGGGLVRPGNSLKLSCVTSGFSFSNYRMHWLRQPPGKRLEWIAVITVKSDNYGANYAESVKGRFTISRDDSKSSVYLQMNRLREEDTATYYCSSLGRVAYWGQGTLVTVSA VL: DIVMTQSQKFMFTSVGDRVSVTCKASQNVDTNVVWYQQKPGQSPKALIYSASSRYSGVPDRFTGSGSGTDFTLTISNVQSEDLAEYFCQQHNSFPLTFGAGTKLELI , give the reported Max Inhibition (%).
Result block: 100

Reference for the values: patent US20250034266A1
